target: tetanus neurotoxin (TeNT), authentic tetanus holotoxin (Clostridium tetani, UniProt P04958 2-1315); experiment: GT1b-TeNT inhibition ELISA, unlabelled binder
Sequence (P04958 2-457 limits assumed, chain 1 of 2): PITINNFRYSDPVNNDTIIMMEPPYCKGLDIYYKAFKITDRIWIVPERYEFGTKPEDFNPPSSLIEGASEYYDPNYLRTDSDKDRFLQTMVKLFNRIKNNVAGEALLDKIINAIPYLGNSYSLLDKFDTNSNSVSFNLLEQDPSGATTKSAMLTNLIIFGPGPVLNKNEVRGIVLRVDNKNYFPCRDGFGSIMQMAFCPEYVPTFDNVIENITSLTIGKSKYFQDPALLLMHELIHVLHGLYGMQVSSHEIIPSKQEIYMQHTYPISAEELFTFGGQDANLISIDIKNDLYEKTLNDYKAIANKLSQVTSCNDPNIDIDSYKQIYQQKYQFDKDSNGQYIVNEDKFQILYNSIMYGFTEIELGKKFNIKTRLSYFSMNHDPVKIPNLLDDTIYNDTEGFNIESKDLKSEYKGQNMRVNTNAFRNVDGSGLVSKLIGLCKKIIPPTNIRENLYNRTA
Sequence (P04958 458-1315 limits assumed, chain 2 of 2): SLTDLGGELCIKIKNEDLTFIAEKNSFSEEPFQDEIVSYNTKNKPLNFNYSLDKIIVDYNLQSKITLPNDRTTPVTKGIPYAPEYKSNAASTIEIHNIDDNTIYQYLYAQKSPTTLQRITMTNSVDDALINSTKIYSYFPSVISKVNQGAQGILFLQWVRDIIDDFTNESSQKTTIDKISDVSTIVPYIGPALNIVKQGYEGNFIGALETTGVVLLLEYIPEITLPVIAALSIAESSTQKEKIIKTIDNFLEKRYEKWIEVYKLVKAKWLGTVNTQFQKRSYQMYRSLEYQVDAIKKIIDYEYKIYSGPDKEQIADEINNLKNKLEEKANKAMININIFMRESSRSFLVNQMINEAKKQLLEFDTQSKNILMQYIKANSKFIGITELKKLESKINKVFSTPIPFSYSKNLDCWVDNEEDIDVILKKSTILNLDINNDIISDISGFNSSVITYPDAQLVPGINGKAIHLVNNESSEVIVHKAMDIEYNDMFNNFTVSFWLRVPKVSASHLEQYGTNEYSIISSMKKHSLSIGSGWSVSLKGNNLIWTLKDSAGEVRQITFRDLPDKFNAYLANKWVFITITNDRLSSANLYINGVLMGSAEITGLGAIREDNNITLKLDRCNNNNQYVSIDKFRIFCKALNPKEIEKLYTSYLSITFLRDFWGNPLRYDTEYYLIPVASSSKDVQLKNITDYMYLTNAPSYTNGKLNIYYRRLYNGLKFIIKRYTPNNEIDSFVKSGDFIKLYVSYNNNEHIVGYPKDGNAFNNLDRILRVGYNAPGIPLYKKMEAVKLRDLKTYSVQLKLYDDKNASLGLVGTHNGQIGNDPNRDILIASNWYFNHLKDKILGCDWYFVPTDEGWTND
Value type: minimal absorbance at 450 nm
I'd appreciate a reply containing only the number, no unit.

Solved entries (count: 3):
Binder: SVT16L (VHH) VHH: QVQLQESGGGSVQAGDSLRLSCAASGRTISNYAMGWFRQAPGKQREFVAAISRSDNTYYTDSVKGRFTISRDNAKNTLYLQMNSLKPEETAVYYCAADPNLMYESKWKYRALEAWGQGTLVTVSS
Value type: minimal absorbance at 450 nm
Measured value: 0.129
--
Binder: SVT05L (VHH) VHH: QVQLQESGGGLVQPGGSLRLSCSASGFSFTDDYGIGWFRSGPGKGREAVAPIADREAVAAIALSDGNTYYSASAKGRFTISRDNAKSTAYLQMNNLKPEDTATYYCAADFWGYGMSWPMATLWEYWGQGIQVTVSS
Value type: minimal absorbance at 450 nm
Measured value: 0.655
--
Binder: SVT25L (VHH) VHH: QVQLQESGGGLVQAGGSLRLSCAASGRTISVYAMGWFRQAPGKQREFVAAISRSDNTYYTDSVKGRFTISRDNVKNTLYLQMNSLKPEETAVYYCAADPNLMYETKWKYRALEAWGQGTLVTVSS
Value type: minimal absorbance at 450 nm
Measured value: 0.106

Turning now to a further binder:
State its minimal absorbance at 450 nm: SVT22L (VHH) VHH: QVQLQESGGGLVQAGESLRLSCTASGISFDDYAIGWFRQAPGQQRKGVACISKADGRTDYLGSVKGRFTLSTDNTKNTVHLQMNNLKPEDTALYTCAAEYKSCGMGYKPIDYWGQGMQVTVSS 0.107
